In this section, each of the molecules is paired with its reported MEAN CpLDH INHIBITION (%).
target-desc: recombinant CpLDH protein (Cryptosporidium parvum, UniProt Q9GT92, F198L/K295E/R251K)

# molecule, MEAN CpLDH INHIBITION (%)
records = [
    ("O=C(NC1=C(Cl)C(=O)c2ccccc2C1=O)C(=O)C(C(=O)c1ccc2ccccc2c1)C1OC(=O)c2ccccc21 (centres unmarked) [NSC641233]", -51.96),
    ("CN(C)CCOC1(Cc2ccc(F)cc2)CCC(C(C)(C)C)CC1.O=C(O)/C=C/C(=O)O (centres unmarked) [NSC670226]", -20.67),
    ("CCCCCCC1CC(=O)C1(Cl)Cl (centres unmarked) [NSC666526]", -2.48),
    ("O=C1C=Cc2ncccc2C1=O [NSC400944]", -2.52),
    ("CC(=O)c1sc2[n+](c1C)C(=O)/C(=C\\c1ccccc1Cl)S2 [NSC658285]", -36.39),
]

* * *

target-desc: recombinant CpLDH protein (Cryptosporidium parvum, UniProt Q9GT92, F198L/K295E/R251K)
result-type: MEAN CpLDH INHIBITION (%)

# molecule, result-type, observed-result
rows = [
    ("Cc1cc(NC(=O)NC(=O)c2ccccc2NC(=O)CN)ccc1Oc1ncc(Br)cn1.Cl [NSC654259]", "MEAN CpLDH INHIBITION (%)", -46.44),
    ("O=C(CC1(O)C(=O)Nc2c(Cl)cc(Cl)cc21)c1cccc([N+](=O)[O-])c1 (stereo not shown) [NSC635438]", "MEAN CpLDH INHIBITION (%)", -43.53),
    ("CCC1CN2CCc3cc(OC)c(OC)cc3C2CC1CC1c2cc(OC)c(OC)cc2CCN1C(=O)C(Cc1c[nH]c2ccccc12)NC(=O)OC(C)(C)C (stereo not shown) [NSC109350]", "MEAN CpLDH INHIBITION (%)", -1.18),
    ("C[C@@H]1C[C@H]2CC[C@H](O2)[C@H](C)C(=O)O[C@@H](C)C[C@@H]2CC[C@@H](O2)[C@@H](C)C(=O)O[C@H](C)C[C@H]2CC[C@H](O2)[C@H](C)C(=O)O[C@@H](C)C[C@@H]2CC[C@@H](O2)[C@@H](C)C(=O)O1 [NSC52141]", "MEAN CpLDH INHIBITION (%)", -100.84),
    ("Cl.NCCSSCc1ccccc1CSSCCN [NSC624169]", "MEAN CpLDH INHIBITION (%)", -25.23),
    ("COc1cc(C(O)CCBr)c(OC)cc1C (stereo not shown) [NSC611750]", "MEAN CpLDH INHIBITION (%)", -11.25),
    ("CCS(=O)(=O)Nc1ccc(Nc2c3ccccc3nc3ccccc23)c(OC)c1.CS(=O)(=O)O [NSC243928]", "MEAN CpLDH INHIBITION (%)", -32.64),
    ("CCCCCC(/C=C/[C@@H]1CC(=O)C[C@H]1O[Si](C)(C)C(C)(C)C)OCOCCOC (stereo partly shown) [NSC689228]", "MEAN CpLDH INHIBITION (%)", -5.60),
    ("CCN(CC)CCCC(C)Nc1ccnc(/C=C/c2ccc(Cl)cc2)c1 (stereo not shown) [NSC157389]", "MEAN CpLDH INHIBITION (%)", -3.33),
    ("CS(=O)(=O)c1nc(N)nc2nc[nH]c12 [NSC63446]", "MEAN CpLDH INHIBITION (%)", -4.16),
    ("Cc1cccc(NC(=O)/C=C/c2ccc([N+](=O)[O-])cc2)c1 [NSC139109]", "MEAN CpLDH INHIBITION (%)", -11.32),
    ("CC1=C2C(=CC(C)(C)[C@@H]2O)C(=O)[C@](C)(O)C12CC2 [NSC400978]", "MEAN CpLDH INHIBITION (%)", -79.24),
    ("CC(C)(C)CC(C)(C)NCC(O)COc1ccc(C(C)(C)c2ccc(OCC(O)CNC(C)(C)CC(C)(C)C)cc2)cc1.Cl (stereo not shown) [NSC145366]", "MEAN CpLDH INHIBITION (%)", -111.71),
    ("O=C1/C(=C\\c2ccc(Cl)c(Cl)c2)CN(C(=O)CCN2CCOCC2)C/C1=C\\c1ccc(Cl)c(Cl)c1 [NSC638646]", "MEAN CpLDH INHIBITION (%)", -17.60),
    ("COc1ccc2oc(-c3ccncc3)cc(=O)c2c1 [NSC54650]", "MEAN CpLDH INHIBITION (%)", -73.33),
    ("COC1=C(N)C(=O)c2nc(C)ccc2C1=O [NSC132493]", "MEAN CpLDH INHIBITION (%)", -117.70),
    ("CC(=O)[O-].Cc1c2cc[n+](CCN3CCCCC3)cc2c(C)c2c1[nH]c1ccc(O)cc12 [NSC311153]", "MEAN CpLDH INHIBITION (%)", -30.69),
    ("Cc1ccc(NC(=O)c2cccc([N+](=O)[O-])c2O)c(C)c1 [NSC79456]", "MEAN CpLDH INHIBITION (%)", -17.92),
    ("CN(C)C(=S)/N=c1\\ssc(=S)n1Cc1ccccn1 [NSC645617]", "MEAN CpLDH INHIBITION (%)", -28.16),
    ("CN(C)c1cccc(/C=C(\\C#N)c2ccccc2)c1 [NSC667251]", "MEAN CpLDH INHIBITION (%)", -17.96),
    ("Cc1ccc(C2NC(=O)c3ccccc3N2)s1 (stereo not shown) [NSC175634]", "MEAN CpLDH INHIBITION (%)", -31.59),
    ("CC(=O)SC(SC(C)=O)SC(C)=O [NSC637833]", "MEAN CpLDH INHIBITION (%)", -64.71),
    ("O=C1c2cccc(O)c2C(=O)c2c(O)cccc21 [NSC7210]", "MEAN CpLDH INHIBITION (%)", -48.97),
    ("C1CN(c2nnc(N3CCC3)nn2)C1 [NSC625748]", "MEAN CpLDH INHIBITION (%)", -117.70),
    ("CC1CCCC(C(=O)/C(=C/c2cccc(Cl)c2)C(=O)C(=O)O)C1 (stereo not shown) [NSC636084]", "MEAN CpLDH INHIBITION (%)", -20.56),
    ("Oc1ccc(-c2nc3ccccc3s2)cc1 [NSC33004]", "MEAN CpLDH INHIBITION (%)", -8.80),
    ("CO[C@@H]1C[C@@H](C[C@H]2CC[C@H](C)[C@H]([C@@H](C)C(=O)[O-])O2)O[C@]2(O[C@](C)([C@H]3CC[C@@](C)([C@@H]4O[C@@H]([C@H]5O[C@@](O)(CO)[C@H](C)C[C@@H]5C)C[C@@H]4C)O3)C[C@H]2C)[C@@H]1C.[Na+] [NSC292567]", "MEAN CpLDH INHIBITION (%)", -134.14),
    ("COc1ccc(/C(=N/O)C(c2ccc(OC)cc2)C2C(=O)Oc3ccccc32)cc1 (stereo not shown) [NSC641607]", "MEAN CpLDH INHIBITION (%)", -85.63),
    ("Cc1ccc(NC(=O)/C=C/c2ccccc2)c(C)c1 [NSC191389]", "MEAN CpLDH INHIBITION (%)", -64.07),
    ("COC(=O)C(=O)C(C(=O)C(=O)Nc1cc(C)ccc1C)c1nc2ccc(C(=O)c3ccccc3)cc2[nH]c1=O (stereo not shown) [NSC642040]", "MEAN CpLDH INHIBITION (%)", -9.38),
    ("Cc1ccccc1NC(=O)C(=O)C(c1cnc2ccc([N+](=O)[O-])cc2n1)[N+](=O)[O-] (stereo not shown) [NSC644735]", "MEAN CpLDH INHIBITION (%)", -56.47),
    ("C=C1C(=O)OC2CC1C(OC(C)=O)C/C(C)=C/CC/C(C)=C\\CCC2(C)O (stereo not shown) [NSC36437]", "MEAN CpLDH INHIBITION (%)", -19.06),
    ("CN(C)CCNC(=O)c1cccc2[nH]c(-c3ccncc3)nc12.Cl [NSC678932]", "MEAN CpLDH INHIBITION (%)", -5.91),
    ("N#CCCN(CCC#N)Cc1cc(O)c(CN(CCC#N)CCC#N)cc1O [NSC70925]", "MEAN CpLDH INHIBITION (%)", 68.17),
]

Where do the numbers come from? From paper PMC6687188.
